- Test system: CD8F1 mice, subcutaneous mammary adenocarcinoma, T/C%
- assay explanation: NCI In Vivo Anticancer Drug Screen. Data for tumor model Mammary Adenocarcinoma CD8F1 (subcutaneous) in CD8F1
- protocol conditions: endpoint: median tumor weight change; dose: 500.0 mg/kg/injection; schedule: Q01DX001 (ip); vehicle: saline with Tween-80; higher = larger tumour
Inconclusive results are not listed.
Listed here are molecules together with their documented T/C.

Past entries and their recorded results:
molecule: O=C(Nc1cccc2c(OC(=O)C(Cl)Cl)c(N=Nc3ccc(S(=O)(=O)Nc4nccs4)cc3)cc(N=Nc3ccc(S(=O)(=O)Nc4nccs4)cc3)c12)C(Cl)Cl (tested in a mixture with another compound)
T/C: 124 % of control
//
molecule: Cc1ccc(NC(=O)Oc2ccc(Br)cc2Br)c([N+](=O)[O-])c1
T/C: 88 % of control
//
molecule: BrC1CC(Br)c2c1c1c(c3c2C(Br)CC3Br)C(Br)CC1Br (stereo not given)
T/C: 88 % of control
//
molecule: CC(=O)Oc1c[nH]c(=O)[nH]c1=O
T/C: 32 % of control

Req: Reported T/C for `CC(=O)N(C)O` : what is it?
Resp: 50 % of control

Req: Same thing, different molecule: CCCCCCC(=O)CC(SCC)c1ccccc1Cl (stereo not given)
Resp: 77 % of control

Req: Same thing, different molecule: `COc1ccc2c(c1[N+](=O)[O-])CC[C@@H]1[C@@H]2CC[C@]2(C)C(=O)CC[C@@H]12`
Resp: 100 % of control

Req: Same thing, different molecule: `CCCCCCCCCCCCCC#CC(=O)O`
Resp: 78 % of control

Req: Same thing, different molecule: CCOC(=O)C1(c2ccccc2)C(=O)Oc2ccccc21 (stereo not given)
Resp: 71 % of control

Req: Same thing, different molecule: C=COC(=O)C(Cc1ccccc1)NC(=O)OCc1ccccc1 (stereo not given)
Resp: 33 % of control

Req: Same thing, different molecule: `C[CH2][Ge]([CH2]C)[CH2]C.C[CH2][Ge]([CH2]C)[CH2]C.C[CH2][Ge]([CH2]C)[O][Ge]([CH2]C)[CH2]C`
Resp: 114 % of control

Req: Same thing, different molecule: `Nc1nc(-c2ccccc2)c(Br)c(=O)[nH]1`
Resp: 93 % of control

Req: Same thing, different molecule: `CCCCn1cnc2c(=S)nc[nH]c21`
Resp: 2 % of control

Req: Same thing, different molecule: `O=[N+]([O-])c1ccc(N2CCOCC2)c2c1no[n+]2[O-]`
Resp: 56 % of control

Req: Same thing, different molecule: `O=C(c1cccnc1)c1cc(-c2ccccn2)c(=O)n2ccccc12`
Resp: 78 % of control

* * *

- Test system: CD8F1 mice, subcutaneous mammary adenocarcinoma, T/C%
- assay explanation: NCI In Vivo Anticancer Drug Screen. Data for tumor model Mammary Adenocarcinoma CD8F1 (subcutaneous) in CD8F1
- protocol conditions: endpoint: median tumor weight (est.); dose: 100.0 mg/kg/injection; schedule: Q07DX005 (ip); vehicle: Klucel (hydroxypropylcellulose) (HPC); higher = larger tumour
- Experimental: The antitumor activity of compounds was measured in mice bearing transplantable tumors. Survival or tumor size were measured and the results are expressed as the measurement made in the treated group (T) divided by the measurement made in the vehicle treated control group (C). The tumor model used in this assay is Mammary Adenocarcinoma CD8F1 (subcutaneous) in CD8F1
Records with an inconclusive call do not appear.
Listed here are compounds together with their documented T/C.

Past entries and their recorded results:
compound: CN(C)N=Nc1ccccc1
T/C: 78 % of control
--
compound: CC(C)CCC[C@@H](C)[C@H]1CC[C@H]2[C@@H]3CC=C4C[C@@H](OC(=O)Cc5ccc(N(CCCl)CCCl)cc5)CC[C@]4(C)[C@H]3CC[C@]12C
T/C: 123 % of control
--
compound: ClCCCCCCCCCCc1ccccc1
T/C: 71 % of control
--
compound: O=c1ssc(=Nc2ccccc2)n1-c1ccccc1
T/C: 70 % of control
--
compound: Nc1nncs1
T/C: 34 % of control

Req: Reported T/C for `CC(C)(Oc1ccc(-c2cccc3ccccc23)cc1)C(=O)O` : what is it?
Resp: 57 % of control

Req: Same thing, different compound: CC1C=NNC1=O (configuration not stated)
Resp: 234 % of control

Req: Same thing, different compound: `C[N+](C)(C)c1cc2c(nn1)Nc1ccccc1S2`
Resp: 116 % of control

Req: Same thing, different compound: `Nc1nc(N)c2cc(CNc3ccc(C(=O)NC(CC(=O)O)CC(=O)O)cc3)ccc2n1`
Resp: 54 % of control

Req: Same thing, different compound: `CCCCc1ccc(-n2c(C)c(COC(=O)NC)c(COC(=O)NC)c2C)cc1`
Resp: 40 % of control

Req: Same thing, different compound: `CN(C)/N=N/c1nc[nH]c1C(N)=O`
Resp: 46 % of control

Req: Same thing, different compound: `O=[N+]([O-])/C=C\c1ccc2c(c1)OCO2`
Resp: 55 % of control

Req: Same thing, different compound: `O=C([CH-]C(=O)C(F)(F)F)c1ccccc1.O=C([CH-]C(=O)C(F)(F)F)c1ccccc1.O=C([CH-]C(=O)C(F)(F)F)c1ccccc1.O=C([CH-]C(=O)C(F)(F)F)c1ccccc1.[Eu+3].c1ccncc1`
Resp: 95 % of control

Req: Same thing, different compound: OCC1OC(n2cnc3c(NO)ncnc32)C(O)C1O (configuration not stated)
Resp: 91 % of control

* * *

- Test system: CD8F1 mice, subcutaneous mammary adenocarcinoma, T/C%
- assay explanation: NCI In Vivo Anticancer Drug Screen. Data for tumor model Mammary Adenocarcinoma CD8F1 (subcutaneous) in CD8F1
- protocol conditions: endpoint: median tumor weight (est.); dose: 50.0 mg/kg/injection; schedule: Q07DX005 (ip); vehicle: saline with Tween-80; higher = larger tumour
Records with an inconclusive call do not appear.
Listed here are compounds together with their documented T/C.

Req: Given the entry `CCOC(=O)[C@]1(Br)CC[C@@]1(Br)C(=O)OCC` , what T/C was observed with CD8F1 mice, subcutaneous mammary adenocarcinoma, T/C%?
Resp: 95 % of control

Req: Same thing, different compound: `O=Cc1ccc([N+](=O)[O-])s1`
Resp: 156 % of control

Req: Same thing, different compound: `CC(=O)Nc1ccc(C(=O)C=O)cc1`
Resp: 84 % of control

* * *

- Tested on: CD8F1 mice, subcutaneous mammary adenocarcinoma, T/C%
- assay explanation: NCI In Vivo Anticancer Drug Screen. Data for tumor model Mammary Adenocarcinoma CD8F1 (subcutaneous) in CD8F1
- protocol conditions: endpoint: median tumor weight (est.); dose: 6.25 mg/kg/injection; schedule: Q07DX005 (ip); vehicle: Klucel (hydroxypropylcellulose) (HPC); higher = larger tumour
Inconclusive results are not listed.
measured property: T/C

Past entries and their recorded results:
molecule: CNC(=O)OCc1c(COC(=O)NC)c(-c2ccc(F)cc2)n2c1CCC2
T/C: 63 % of control
--
molecule: CC(=O)OCc1cc(=O)n(C)c2c3c4c(cc12)c(C)cc(=O)n4CO3
T/C: 42 % of control
--
molecule: N=C(N)CCCCCCCCC(=N)N
T/C: 123 % of control

In the following, a different molecule is considered.
Req: Reported T/C for C=C(NC(=O)C(=C)NC(=O)c1csc(C2=NC3c4csc(n4)C4NC(=O)c5csc(n5)C(C(C)(O)C(C)O)NC(=O)C5CSC(=N5)/C(=C/C)NC(=O)C(C(C)O)NC(=O)c5csc(n5)C3(CC2)NC(=O)C(C)NC(=O)C(=C)NC(=O)C(C)NC(=O)C(C(C)CC)NC2C=Cc3c(C(C)O)cc(nc3C2O)C(=O)OC4C)n1)C(N)=O (centres undefined) : what is it?
Resp: 72 % of control

* * *

- Tested on: CD8F1 mice, subcutaneous mammary adenocarcinoma, T/C%
- assay explanation: NCI In Vivo Anticancer Drug Screen. Data for tumor model Mammary Adenocarcinoma CD8F1 (subcutaneous) in CD8F1
- protocol conditions: endpoint: mean tumor weight; dose: 50.0 mg/kg/injection; schedule: Q07DX006 (ip); vehicle: saline; higher = larger tumour
Records with an inconclusive call do not appear.
Listed here are compounds together with their documented T/C.

compound: NC(=O)c1ncn(C2OC(CO)C(O)C2O)n1 (centres undefined)
T/C: 60 % of control

compound: O=NN(CCCl)C(=O)NC1CCCCC1
T/C: 220 % of control

compound: CC1CCC(NC(=O)N(CCCl)N=O)CC1 (centres undefined)
T/C: 7 % of control

Req: Reported T/C for `COc1ccc(C(=O)/C(Br)=C/C(=O)O)cc1` : what is it?
Resp: 86 % of control

* * *

- Tested on: CD8F1 mice, subcutaneous mammary adenocarcinoma, T/C%
- assay explanation: NCI In Vivo Anticancer Drug Screen. Data for tumor model Mammary Adenocarcinoma CD8F1 (subcutaneous) in CD8F1
- protocol conditions: endpoint: median tumor weight (est.); dose: 100.0 mg/kg/injection; schedule: Q07DX005 (ip); vehicle: water; higher = larger tumour
Records with an inconclusive call do not appear.
measured property: T/C

Req: Reported T/C for `CNc1nc(N(C)C)nc(N(C)C)n1` : what is it?
Resp: 28 % of control

Req: Same thing, different compound: `O=C(O)c1c2c(nc3ccccc13)Cc1ccccc1-2`
Resp: 87 % of control

Req: Same thing, different compound: N#CC(OC1OC(COC2OC(CO)C(O)C(O)C2O)C(O)C(O)C1O)c1ccccc1 (centres undefined)
Resp: 88 % of control

Req: Same thing, different compound: CC(C)[C@](O)(C(=O)OCC1=CC[N+]2([O-])CC[C@@H](O)[C@@H]12)[C@H](C)O (some centres undefined)
Resp: 42 % of control
